Values compiled from a melting point compilation (Tetko et al.).

Please respond with reported melting point for every item in the list.
Give bare numbers, in °C.

Some solved entries appear below for comparison.
compound: CC(=O)c1ccc(-n2ccnc2)cc1
melting point, °C: 116
//
compound: CCC1CCCCN1C(=O)COC(=O)c1ccccc1 (configuration not stated)
melting point, °C: 54.5
//
compound: O=C(Nc1cc([N+](=O)[O-])ccc1C(=O)O)c1ccccc1
melting point, °C: 252
//
compound: CC12CCC(C(COC(=O)c3ccccc3)C1=O)C2(C)C (configuration not stated)
melting point, °C: 96
//
compound: NS(=O)(=O)c1cc2c(cc1Cl)NC(C1CC3C=CC1C3)NS2(=O)=O (configuration not stated)
melting point, °C: 234
//
compound: Cc1cc(C)c(N)cc1C
melting point, °C: 68

Q: Let me know recorded melting point for N[C@@H](Cc1cc(I)c(O)c(I)c1)C(=O)O , thanks.
Result: 213

###

Rule: melting point below 70 °C gives Condition met. Equal to or above 70 °C gives Condition not met.

molecule: CCOC(=O)c1cnn(-c2ccccc2)c1N
answer-label: Condition not met
//
molecule: COc1ccc(C=CC(=O)c2cccc(C(=O)C=Cc3ccc(OC)cc3)c2)cc1
answer-label: Condition not met
//
molecule: CC1=C(C)C(C(C)C)C=C1Cc1ccccc1 (configuration not stated)
answer-label: Condition met

Q: Dear colleague, could you confirm whether melting point of FC(F)(F)C(F)(F)C(F)(F)C(F)(F)C(F)(F)I falls below 70 °C? Thanks.
Result: Condition met

Q: melting point under 70 °C? Item: Cc1ccc(O)c2ccccc12
Result: Condition not met

###

experimental-readout: melting point (°C)
Answers are plain numbers, in °C.

molecule: Fc1cc(Br)c(Cl)c(Br)c1
unit-text: °C
recorded-value: 86
//
molecule: O=NN1CCCC1c1cccnc1 (stereo not drawn)
unit-text: °C
recorded-value: 47
//
molecule: CCCCCC(=O)OCC
unit-text: °C
recorded-value: -67
//
molecule: COP(=S)(OC)SCC(=O)N(c1ccc(Cl)cc1)C(C)C
unit-text: °C
recorded-value: 51
//
molecule: O=Cc1ccccc1-n1cccn1
unit-text: °C
recorded-value: 58

For each of the molecules below, note its melting point.
1. COc1ccc(/C=C(\C(N)=O)c2nc3ccccc3s2)cc1
2. O=C1C(C(O)c2c(Cl)cccc2Cl)C(C(F)(F)F)=NN1c1ccccc1 (stereo not drawn)
3. COc1ccccc1C1CNCCN1 (stereo not drawn)
4. CC(Oc1cc(Cl)c(Cl)cc1Cl)C(=O)O (stereo not drawn)

Result:
1: 168; 2: 196; 3: 80; 4: 182

###

Give melting point for every item shown.
Numbers only, in °C.

# example entries with known answers
compound: NCc1cc(=O)[nH]o1
recorded-value: 175
//
compound: CCOC(=O)c1sc2sc(C(=O)OCC)c(N)c2c1N
recorded-value: 200
//
compound: CCCS(=O)(=O)O
recorded-value: 8

State recorded melting point for all listed compounds.
1. Cc1cc(I)ccc1N
2. CC(C)(C)C(O)C(=Cc1ccc(Cl)cc1)n1cncn1 (stereo unspecified)
3. CC(=O)/C(=N\Nc1ccc([N+](=O)[O-])cc1)C(=O)C(F)(F)F

Result:
86
153
140

###

experimental-readout: melting point (°C)
Numbers only, in °C.

Observe how each entry below is paired with its result.
compound: CN(C)C(=N)N(C)C
unit-text: °C
melting point: -30

compound: Cc1ccc(C(=O)C2=NN(c3ccccc3)C3C(=O)N(c4cccc([N+](=O)[O-])c4)C(=O)C23)cc1 (configuration not stated)
unit-text: °C
melting point: 176

Hi team, please reply with melting point for each item in this list.
1. CC1(C)OC(=O)C(=Cc2ccc(Cl)cc2Cl)C(=O)O1
2. CC1=C(C(=O)OC(C)C)C(c2ccco2)NC(=O)N1 (configuration not stated)
3. CCCCCCCCCC(C)C
4. O=[N+]([O-])c1ccc2c(c1)oc1ccccc12
5. COc1cc(C)nc(N)n1
6. C[Si](C)(C)O[Si](C)(C)C
7. Clc1c(Cl)c(Cl)c2nccnc2c1Cl
8. CCCC(C)S (configuration not stated)

Result:
1: 156; 2: 205; 3: -47; 4: 182; 5: 161; 6: -59; 7: 190; 8: -169

Give melting point for all compounds that follow.
1. COc1cccc(NC(N)=S)c1
2. Cc1ccc(NC(=O)C(C)c2ccc(C)cc2)cc1 (configuration not stated)
3. O=C(Cc1ccccc1)c1ccc(Br)cc1
4. CCOC(=O)N1CCNCC1
5. O=C(O)CC(CC(=O)O)C(=O)O

Result:
1: 160; 2: 105; 3: 111; 4: 120; 5: 166
